target.or.test.system: T1, human DLL3 on cells (human, UniProt Q9NYJ7 27-618)
T1 construct: Endogenous on H1184 and SHP77; Cell line is named under assay; also called H1184; DLL3/H82
T1 sequence: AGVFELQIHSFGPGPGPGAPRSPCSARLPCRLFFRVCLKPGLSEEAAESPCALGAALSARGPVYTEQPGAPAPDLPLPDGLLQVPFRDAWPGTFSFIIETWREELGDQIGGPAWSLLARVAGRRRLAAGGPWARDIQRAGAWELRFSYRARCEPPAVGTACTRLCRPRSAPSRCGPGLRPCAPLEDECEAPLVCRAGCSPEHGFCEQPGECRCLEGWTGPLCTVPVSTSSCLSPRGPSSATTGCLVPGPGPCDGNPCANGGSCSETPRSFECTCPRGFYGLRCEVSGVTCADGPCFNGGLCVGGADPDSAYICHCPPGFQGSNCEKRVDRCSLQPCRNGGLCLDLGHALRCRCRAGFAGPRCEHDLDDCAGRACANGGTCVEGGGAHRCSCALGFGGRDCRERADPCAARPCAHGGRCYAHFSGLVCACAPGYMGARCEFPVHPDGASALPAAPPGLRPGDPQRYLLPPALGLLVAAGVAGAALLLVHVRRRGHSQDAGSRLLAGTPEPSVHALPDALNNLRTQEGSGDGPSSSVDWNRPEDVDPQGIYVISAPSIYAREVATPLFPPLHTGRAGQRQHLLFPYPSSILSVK
measurement.protocol: flow cytometry, SHP77 cells
Give Emax for every item shown.

Data point: hu30L5H5 (antibody, human IgG1, kappa, V domains shown) VH: EVRLVQSGAEVKKPGASVKVSCKASGYTFTDYYMNWVRQAPGQSLEWMGIINPYTGDTSYNQKFRGRVTLTVDKSASTAYMELSSLRSEDTAVYYCARYHYGPHLEGYFDVWGQGTTVTVSS VL: DIQMTQSPSSLSASVGDRVTITCKASENVGYVSWYQQKPGKSPKLLIYGASNRYTGVPDRFSGSGSGTDFTLTISSLQPEDFATYYCGQSYSYPLTFGSGTKLEIKR ; Emax = 1610

Data point: hu30L4H11 (antibody, human IgG1, kappa, V domains shown) VH: EVRLVQFGAVVKKPGASVKVSCKASGYTFTDYYMNWVRQAPGQSLEWMGIINPYTGDTSYNQKFRGRVTLTVDKSSSTAYMELSSLTSEDTAVYYCARYHYGPHLEGYFDVWGQGTTVTVSS VL: DIQMTQSPSSLSASVGDRVTITCKASENVGYVSWYQQKPGKAPKLLIYGASNRYTGVPSRFSGSGSGTDFTLTISSLQPEDFATYYCGQSYSYPLTFGQGTKLEIKR ; Emax = 1520

Data point: hu30L1H10 (antibody, human IgG1, kappa, V domains shown) VH: EVRLVQSGAEVKKPGASVKVSCKASGYTFTDYYMNWVRQSHGQSLEWMGIINPYTGDTSYNQKFRGRVTLTVDKSASTAYMELSSLRSEDTAVYYCARYHYGPHLEGYFDVWGQGTTVTVSS VL: DIVMTQSPDSLAVSLGERATINCKASENVGYVSWYQQKPGQPPKLLIYGASNRYTGVPDRFSGSGSGTDFTLTISSLQAEDVAVYYCGQSYSYPLTFGQGTKLEIKR ; Emax = 1630
